# measurement protocol: Bi-directional permeability, CACO-2
# Assay type: in vitro ADME
# cond: human, Caco-2, pH 7, Percent Recovery B-to-A
Give rule met when the value for recovery at 2 h, 10 μM is at least 90%. Give rule not met when it is less.

INSERT INTO measurements (compound, category) VALUES
  ('CCc1ccc(C(=O)NN(C(=O)c2cc(C)cc(C)c2)C(C)(C)C)cc1', 'rule not met'),
  ('CCC(N(NC(=O)c1cccc(C)c1C)C(=O)c1cc(C)cc(C)c1)C(C)(C)C (centres unmarked)', 'rule not met'),
  ('COc1ccc(C(=O)N(NC(=O)c2ccc3c(c2C)OCCO3)C(C)(C)C)c(OC)n1', 'rule met');

###

# system name: GAL4 DBD (1-147)-CfEcR(DEF)/VP16AD-βRXREF-LmUSPEF (Choristoneura fumiferana, UniProt O77240)
# measurement protocol: cell-based
# cond: 3.3 uM ligand; RLU ligand treated / RLU DMSO treated cells; average of two wells
assay endpoint: Fold Induction, 27-63 Assay, 3.3 uM

INSERT INTO measurements (molecule, observed_measurement) VALUES
  ('CCc1ccc(C(=O)NN(C(=O)c2cc(OC)c(C)c(OC)c2)C(c2ccccc2)C(C)(C)C)cc1 (racemic) [RG-115847]', 2729),
  ('COc1cc(C(=O)N(NC(=O)c2cccc(OC)c2C)C(C)(C)C)nc(OC)n1 [RG-115849]', 1),
  ('CCc1c(C(=O)NN(C(=O)c2ccccc2OC)C(C)(C)C)ccc2c1OCCO2 [RG-100690]', 1136),
  ('COc1cccc(C(=O)NN(C(=O)c2cc(Cl)nnc2Cl)C(C)(C)C)c1C [RG-115861]', 8);

###

# system name: GAL4 DBD (1-147)-CfEcR(DEF)/VP16AD-βRXREF-LmUSPEF (Choristoneura fumiferana)
# measurement protocol: cell-based
# cond: maximum fold induction at any concentration relative to that of GS-E ligand; CHO 27-63 cells
assay endpoint: 27-63 assay Rel Max FI

INSERT INTO assay_data (compound, system_name, observed_measurement) VALUES
  ('CCCCC(N(NC(=O)c1ccc(CC)cc1)C(=O)c1cccnc1OC)C(C)(C)C (centres unmarked) [RG-115842]', 'GAL4 DBD (1-147)-CfEcR(DEF)/VP16AD-βRXREF-LmUSPEF (Choristoneura fumiferana)', 0.524),
  ('CCc1cccc(C(=O)NN(C(=O)c2cc(C)cc(C)c2)C(C)(C)C)c1C [RG-101691]', 'GAL4 DBD (1-147)-CfEcR(DEF)/VP16AD-βRXREF-LmUSPEF (Choristoneura fumiferana)', 0.969),
  ('CCc1ccc(C(=O)NN(C(=O)c2cccnc2OC)C(c2ccccc2)C(C)(C)C)cc1 (centres unmarked) [RG-115848]', 'GAL4 DBD (1-147)-CfEcR(DEF)/VP16AD-βRXREF-LmUSPEF (Choristoneura fumiferana)', 0.494),
  ('Cc1c(C(=O)NN(C(=O)c2cc(F)c(F)c(F)c2F)C(C)(C)C)ccc2c1CCCO2 [RG-115518]', 'GAL4 DBD (1-147)-CfEcR(DEF)/VP16AD-βRXREF-LmUSPEF (Choristoneura fumiferana)', 0.866),
  ('COc1cccc(C(=O)NN(C(=O)c2cc(C)cc(C)c2)C(C)(C)C)c1N [RG-115378]', 'GAL4 DBD (1-147)-CfEcR(DEF)/VP16AD-βRXREF-LmUSPEF (Choristoneura fumiferana)', 0.863),
  ('COc1cccc(C(=O)NN(C(=O)c2ccc(C(F)(F)F)n(C)c2=O)C(C)(C)C)c1C [RG-115835]', 'GAL4 DBD (1-147)-CfEcR(DEF)/VP16AD-βRXREF-LmUSPEF (Choristoneura fumiferana)', 0.731),
  ('CCc1c(C(=O)NN(C(=O)c2ccc(Cl)cc2OC)C(C)(C)C)ccc2c1OCO2 [RG-115085]', 'GAL4 DBD (1-147)-CfEcR(DEF)/VP16AD-βRXREF-LmUSPEF (Choristoneura fumiferana)', 0.683),
  ('CC(C)(C)N(NC(=O)c1ccc2c(c1)OCO2)C(=O)c1ccc(F)cc1Cl [RG-101048]', 'GAL4 DBD (1-147)-CfEcR(DEF)/VP16AD-βRXREF-LmUSPEF (Choristoneura fumiferana)', 0.708);
